TARGET_DESC: T1, Soluble IGF-1R (R&D Systems, Cat. # 391-GR) (UniProt P08069 31-935, limits assumed)
T1 construct: extracellular domain; bought; also called sIGF-1R
ASSAY_METHOD_TEXT: phage ELISA ratios compared
QUANTITY_NAME: IGF-1R/IR ratio comparison

{"BINDER": "SRAKVEAEMPDSGDPFYHKLSELLASG [B6Hα-1-A3-IR]", "MEAS_VALUE": 3.3}
{"BINDER": "PDLHKGFYAQLAQLIRGQLLS [20E2B-3-E3-IGFR]", "MEAS_VALUE": 13.1}
{"BINDER": "GGTKAVAKVGTRDDPFYHKLSELLQGS [B6Hα-4-G8-IR]", "MEAS_VALUE": 3.6}
{"BINDER": "VERSASSQDGNFYDWFVVQIR [A6S-2-D1-IR]", "MEAS_VALUE": 2.6}
{"BINDER": "VGYQGQGDENFYDWFIRQVSGRLGVQ [H2CA-4-F5-IGFR]", "MEAS_VALUE": 12.3}
{"BINDER": "RAGSSDFHEDFYEWFVRQVSLSLKGK [H2CA-2-B9-IGFR]", "MEAS_VALUE": 4.2}
{"BINDER": "GCAVVEEAERSRGDPFYHKLSELIQGC [B6Hα-3-E7-IR]", "MEAS_VALUE": 4.3}
{"BINDER": "AQPCGGFYGLLEQLVGRSVCD [20E2B-4-F10-IGFR]", "MEAS_VALUE": 7.8}
{"BINDER": "GAPVDQLHEDFYDWFVRQVSQAATG [H2CA-2-B2-IGFR]", "MEAS_VALUE": 3.5}
{"BINDER": "YRGMLVLGRISGGAGKAASERPARIGQKVSAVNFYDWFV [A6L-0-H3-IR]", "MEAS_VALUE": 13}
{"BINDER": "RQGTGSFYLMLEQLLVGARGP [20E2B-4-G11-IGFR]", "MEAS_VALUE": 7}
{"BINDER": "RFSTDGFYQYLLALVGGGPVG [20E2B-1-A11-IGFR]", "MEAS_VALUE": 9.7}
{"BINDER": "FRTLAAQHDSFYDWFDRQVSGAAGER [H2CA-3-C11-IGFR]", "MEAS_VALUE": 2.1}
{"BINDER": "DRAFYNGLRDLVGAVYGAWD [R20α-4-20C11-IR]", "MEAS_VALUE": 10.3}
